- system_name: HLA-B*15:17
- experiment_summary: IEDB peptide-MHC binding, purified MHC/competitive/fluorescence; filed as Kd, often an IC50 or EC50 that approximates it; bounds were set here for any values at or beyond the usual limits of such assays
- condition_description: source organism: Orthohantavirus puumalaense
pKd: −log10 of the molar value.
reported_metric: pKd

(Q) Request - read-out pKd | tested on HLA-B*15:17 | sequence "LRYGNVLDV"
(A) ≤ 4.70

---

- system_name: HLA-A*02:01
- experiment_summary: IEDB peptide-MHC binding, purified MHC/competitive/fluorescence; filed as Kd, often an IC50 or EC50 that approximates it; bounds were set here for any values at or beyond the usual limits of such assays
- condition_description: source organism: Vaccinia virus Tian Tan
reported_metric: pKd
In textbook form, pKd equals minus log to base ten of the concentration in mol/L.

(Q) Can you look up the measured pKd of "ALSSDGDTV" for me?
(A) 8.02

---

- system_name: HLA-B*18:01
- experiment_summary: IEDB peptide-MHC binding, purified MHC/direct/fluorescence; filed as Kd, often an IC50 or EC50 that approximates it; bounds were set here for any values at or beyond the usual limits of such assays
- condition_description: source organism: Mycobacterium tuberculosis str. Haarlem
reported_metric: Kd

(Q) Item under review: "LPVEYLQVP" . Reported Kd?
(A) ≥ 20 µM

---

- system_name: HLA-A*69:01
- experiment_summary: IEDB peptide-MHC binding, purified MHC/competitive/fluorescence; filed as Kd, often an IC50 or EC50 that approximates it; bounds were set here for any values at or beyond the usual limits of such assays
- condition_description: source organism: Orthohantavirus negraense
reported_metric: Kd

(Q) # input sequence: "RRFTQAIYD" ; wanted: its Kd
(A) ≥ 20 µM

---

- system_name: HLA-B*40:02
- experiment_summary: IEDB peptide-MHC binding, purified MHC/competitive/radioactivity; filed as Kd, often an IC50 or EC50 that approximates it; bounds were set here for any values at or beyond the usual limits of such assays
- condition_description: source organism: Mammarenavirus lassaense
reported_metric: Kd
Include the unit right after the number.

{"chain_sequence": "EELITDVEFL", "system_name": "HLA-B*40:02", "result": "9850 nM"}
{"chain_sequence": "GEPKMTKAL", "system_name": "HLA-B*40:02", "result": "178 nM"}
{"chain_sequence": "NENPGGYCL", "system_name": "HLA-B*40:02", "result": "278 nM"}

Now look at this entry.
(Q) What measured Kd is associated with "YDFVLVGPC" on HLA-B*40:02?
(A) 836 nM

---

- system_name: HLA-B*08:01
- experiment_summary: IEDB peptide-MHC binding, purified MHC/direct/fluorescence; filed as Kd, often an IC50 or EC50 that approximates it; bounds were set here for any values at or beyond the usual limits of such assays
- condition_description: source organism: Vibrio cholerae
pKd: −log10 of the molar value.
reported_metric: pKd

(Q) Item under review: "EGIEGRIAY" . Reported pKd?
(A) ≤ 4.70

---

- system_name: HLA-A*30:02
- experiment_summary: IEDB peptide-MHC binding, purified MHC/competitive/radioactivity; filed as Kd, often an IC50 or EC50 that approximates it; bounds were set here for any values at or beyond the usual limits of such assays
- condition_description: source organism: Mammarenavirus brazilense
reported_metric: pKd
Entry type: numeric. Quantity: pKd, the -log10 of concentration in molar units.

(Q) Any idea what pKd was measured for "EMFKTKGRY" ?
(A) 6.88

---

- system_name: HLA-A*30:01
- experiment_summary: IEDB peptide-MHC binding, purified MHC/competitive/radioactivity; filed as Kd, often an IC50 or EC50 that approximates it; bounds were set here for any values at or beyond the usual limits of such assays
- condition_description: source organism: Dengue virus 4 Dominica/814669/1981
reported_metric: pKd
To interpret pKd, take it as minus log10 of a concentration measured in moles per litre.

(Q) Name the reported pKd value associated with the sequence "KVLRPTPRG"
(A) 6.52

---

- system_name: HLA-A*31:01
- experiment_summary: IEDB peptide-MHC binding, purified MHC/competitive/radioactivity; filed as Kd, often an IC50 or EC50 that approximates it; bounds were set here for any values at or beyond the usual limits of such assays
- condition_description: source organism: Vaccinia virus Copenhagen
reported_metric: Kd (nM)
Dear colleague, please return just the value in nM, with no unit written.

(Q) Entry under review: "YLLVKWYKK" . Reported Kd?
(A) 12

---

pKd values, listed per item
- system_name: HLA-B*48:01
- experiment_summary: IEDB peptide-MHC binding, purified MHC/direct/fluorescence; filed as Kd, often an IC50 or EC50 that approximates it; bounds were set here for any values at or beyond the usual limits of such assays
- condition_description: source organism: West Nile virus
pKd: −log10 of the molar value.

{"chain_sequence": "YTMDGEYRL", "pKd": "≤ 4.70"}

(Q) I am curious: what pKd value has been reported for "AHYEEDVNL" ?
(A) ≤ 4.70

---

- system_name: HLA-A*31:01
- experiment_summary: IEDB peptide-MHC binding, purified MHC/direct/fluorescence; filed as Kd, often an IC50 or EC50 that approximates it; bounds were set here for any values at or beyond the usual limits of such assays
- condition_description: source organism: Cowpox virus
pKd: −log10 of the molar value.
reported_metric: pKd

(Q) Can you share its pKd? I mean this sequence: "YTDLTYQSF"
(A) ≤ 4.70

---

- system_name: HLA-B*40:02
- experiment_summary: IEDB peptide-MHC binding, purified MHC/competitive/radioactivity; filed as Kd, often an IC50 or EC50 that approximates it; bounds were set here for any values at or beyond the usual limits of such assays
- condition_description: source organism: SARS coronavirus Tor2
Below, each entry is listed with its recorded Kd.
Give a bare numeral; the unit nM is implied.

Solved entries:
{"chain_sequence": "RERVNINIV", "Kd [nM]": 26}
{"chain_sequence": "QEAYYRARA", "Kd [nM]": 1930}
{"chain_sequence": "QESLTTTSTA", "Kd [nM]": 146}
{"chain_sequence": "LEQWNLVIGF", "Kd [nM]": 565}
{"chain_sequence": "NECAQVLSEM", "Kd [nM]": 12200}
{"chain_sequence": "VESSSKLWA", "Kd [nM]": 3160}

(Q) Quick one: Kd of "QEIQLLAAVG" ?
(A) 18000

(Q) Quick check: Kd of "KETSYTTTI" ?
(A) 59.6

---

Overview of recorded Kd for various sequences
- system_name: HLA-A*02:01
- experiment_summary: IEDB peptide-MHC binding, purified MHC/direct/fluorescence; filed as Kd, often an IC50 or EC50 that approximates it; bounds were set here for any values at or beyond the usual limits of such assays
- condition_description: source organism: West Nile virus

{"chain_sequence": "LVKTESWIL", "Kd": "≥ 20 µM"}

We next turn to a different sequence, shown below.
(Q) Recorded Kd for "AHYEEDVNL" , please?
(A) ≥ 20 µM

---

- system_name: HLA-B*35:01
- experiment_summary: IEDB peptide-MHC binding, purified MHC/competitive/radioactivity; filed as Kd, often an IC50 or EC50 that approximates it; bounds were set here for any values at or beyond the usual limits of such assays
- condition_description: source organism: SARS coronavirus Tor2
// Kd lookup, one value per entry

{"chain_sequence": "APVSAMVRM", "result": "0.433 µM"}
{"chain_sequence": "LPYPDPSRIL", "result": "≥ 27 µM"}

(Q) // Kd lookup, key: "FPLKLRGTAV"
(A) 4.53 µM

(Q) Which Kd is listed for "KPTESACSSL" ?
(A) 16.6 µM

(Q) For "IPKGIMMNV" , what is its reported Kd?
(A) ≥ 20.9 µM

---

- system_name: HLA-A*02:01
- experiment_summary: IEDB peptide-MHC binding, purified MHC/direct/fluorescence; filed as Kd, often an IC50 or EC50 that approximates it; bounds were set here for any values at or beyond the usual limits of such assays
- condition_description: source organism: Pseudomonas aeruginosa UCBPP-PA14
reported_metric: Kd

(Q) Please provide the recorded Kd for "SPADERAVA" , tested on HLA-A*02:01.
(A) ≥ 20 µM

---

- system_name: HLA-C*14:02
- experiment_summary: IEDB peptide-MHC binding, purified MHC/competitive/fluorescence; filed as Kd, often an IC50 or EC50 that approximates it; bounds were set here for any values at or beyond the usual limits of such assays
- condition_description: source organism: Giardia lamblia ATCC 50803
reported_metric: Kd (nM)
Use nM as the unit, but write only the number.

(Q) Find the recorded Kd belonging to "YMRERFEPM" and report it.
(A) 0.3

---

- system_name: HLA-A*02:03
- experiment_summary: IEDB peptide-MHC binding, purified MHC/competitive/radioactivity; filed as Kd, often an IC50 or EC50 that approximates it; bounds were set here for any values at or beyond the usual limits of such assays
- condition_description: source organism: Vaccinia virus WR
The entries below are paired with their reported pKd.
Lab note — pKd values are minus log10 of concentrations in M.

// worked examples, pKd included
{"chain_sequence": "ELWARISSSL", "pKd": 6.49}
{"chain_sequence": "FVLALYSPPL", "pKd": 7.42}
{"chain_sequence": "NISFKSINKV", "pKd": 5.82}
{"chain_sequence": "IMAFILGII", "pKd": 7.53}
{"chain_sequence": "EMKYALINLV", "pKd": 6.55}

(Q) So what does the record say about pKd for "SLETVKMGA" ?
(A) 6.26

(Q) Returns the measured pKd for the input sequence. Input: "MVTDKTAYI"
(A) 8.70

(Q) # get_value(readout='pKd', item= "CTNDIYCDEI" )
(A) 5.24

(Q) Which pKd is listed for "NVTGFMEEEI" ?
(A) 5.29

(Q) Data request, read-out pKd, for "IVNCLSLSNL"
(A) 6.89

(Q) Would you mind telling me what pKd value was observed for "LQWDDNIPEL" ?
(A) 6.15

(Q) Bench note: what pKd did "LTHFNNNENV" show?
(A) 5.14

(Q) Item under review: "LAISAVYFKA" . Reported pKd?
(A) 6.44

(Q) I am curious: what pKd value has been reported for "KLYGYASLT" ?
(A) 7.67

(Q) Name the reported pKd value associated with the sequence "NVISKIYTL"
(A) 7.01

(Q) # query: pKd of entry "CIVAAVIIM"
(A) 5.85

(Q) If you can, please state the reported pKd value of "DVSLSAYII" .
(A) 6.12

(Q) # pKd lookup, item "IAVSVYGAIT"
(A) 5.03

(Q) Which value of pKd has been reported for "ALKAYFTAKI" in the records?
(A) 7.11

This collection of values is drawn from the Immune Epitope Database (IEDB).
